measurement-description: Liver microsomal stability, human liver microsomes
Format: in vitro ADME
measurement-context: 1 μM compound, NADPH, read-out: t1/2 (min) in HLM
reported-property: half-life at 1 μM

Request: I would be grateful if you could share the reported half-life at 1 μM for COc1ncnc(C2(C)CC2)c1-c1ncc2cnn(Cc3ccc(-n4nc(C(F)(F)F)cc4OC)cc3)c2n1 [Example 106] .
Result: > 25 min

Request: Reported half-life at 1 μM for COc1ncnc(C2CC2)c1-c1ncc2nc(C(C)C)n(Cc3ccc(-c4nc(C(F)(F)F)cn4C(C)C)cc3)c2n1 [Example 208] : what is it?
Result: > 25 min

Request: Quick check: half-life at 1 μM of COc1ncnc(C2CC2)c1-c1ncc2cnn([C@@H](C)c3ccc(-c4nc(C(F)(F)F)cn4C)cc3)c2n1 (single isomer, unassigned) [Example 92] ?
Result: < 25 min

Request: What does the record list as half-life at 1 μM for COc1ncnc(C2CC2)c1-c1ncc2cnn(Cc3ccc(-c4nc(C(F)(F)F)cn4CCF)cc3)c2n1 [Example 137] ?
Result: > 25 min

Request: Which value of half-life at 1 μM has been reported for Cn1cc(C(F)(F)F)nc1-c1ccc(Cn2ncc3cnc(-c4c(OS(=O)(=O)C(F)(F)F)ncnc4C4CC4)nc32)cc1 [Example 160] in the records?
Result: > 25 min

Request: Value lookup for half-life at 1 μM; key = COc1ncnc(C(C)C)c1-c1ncc2cnn(Cc3ccc(-n4nc(C(F)(F)F)cc4C)cc3)c2n1 [Example 115]
Result: < 25 min

Request: Param item = CCn1cc(C(F)(F)F)nc1-c1ccc(Cn2ncc3cnc(-c4c(OC)cnn4C4CC4)nc32)cc1 [Example 82] ; retrieve measured half-life at 1 μM.
Result: < 25 min

Request: Requested field: half-life at 1 μM. Item: COc1ncnc(C2CC2)c1-c1ncc2nnn(Cc3ccc(-c4nc(C(F)(F)F)cn4C)cc3)c2n1 [Example 215]
Result: > 25 min

Request: Using the record for CCOc1ncnc(OCC)c1-c1ncc2cnn(Cc3ccc(-c4nc(C(F)(F)F)cn4CC)cc3)c2n1 [Example 91] , report its half-life at 1 μM.
Result: < 25 min

Request: Looking for the measured half-life at 1 μM of COc1ncnc(C2CC2)c1-c1ncc2cnn(Cc3ccc(-n4nc(C(F)(F)F)cc4C(C)C)cc3)c2n1 [Example 29] , can you help?
Result: > 25 min

Request: Form field: reported half-life at 1 μM of COc1ncnc(C2CC2)c1-c1ncc2cnn([C@H](C)c3ccc(-c4nc(C(F)(F)F)cn4C(C)C)cc3)c2n1 [Example 98]
Result: > 25 min

Request: Form field: reported half-life at 1 μM of COc1ncnc(C2CC2)c1-c1ncc2cnn(Cc3ccc(-n4nc(C(F)F)cc4N(C)C)cc3)c2n1 [Example 123]
Result: < 25 min

Request: So what does the record say about half-life at 1 μM for COCCOc1ncnc(C2CC2)c1-c1ncc2cnn(Cc3ccc(-n4nc(C(F)(F)F)cc4C)cc3)c2n1 [Example 43] ?
Result: < 25 min

Request: Which half-life at 1 μM value belongs to COc1ncnc(C2CC2)c1-c1ncc2cnn(Cc3ccc(-c4nc(C(F)(F)F)cn4C4CCC4)cc3)c2n1 [Example 144] ?
Result: > 25 min

###

Kindly state solubility at 24 h for each of the entries shown.
measurement-description: ADME solubility determination at pH 2.0 and pH 7.4
Type: physicochemical
measurement-context: aqueous buffer, thermodynamic from solid; PBS pH 2.0, shaken at 25° C. for 24 hours, LC-MS/MS; read-out: Solubility at pH 2.0

Request: Query (compound): CCn1cc(C(F)(F)F)nc1-c1ccc(Cn2ncc3cnc(-c4c(OC)ncnc4C4CC4)nc32)cn1 [Example 75] ; field requested: solubility at 24 h
Result: < 10 µM

Request: Which measured solubility at 24 h value corresponds to COc1ncnc(C2CC2)c1-c1ncc2cnn(Cc3ccc(-c4csc(C(F)(F)F)n4)cc3)c2n1 [Example 126] ?
Result: < 10 µM

Request: Which measured solubility at 24 h value corresponds to COc1ncnc(C2CC2)c1-c1ncc2cnn(Cc3ccc(-c4nc(C(F)(F)F)sc4C)cc3)c2n1 [Example 125] ?
Result: < 10 µM

Request: Recorded solubility at 24 h for CCn1cc(C(F)(F)F)nc1-c1ccc([C@@H](C)n2ncc3cnc(-c4c(OC)ncnc4C4CCC4)nc32)cc1 (single isomer, unassigned) [Example 100] , please?
Result: > 10 µM

Request: Query (compound): CCOc1ncnc(C2CC2)c1-c1ncc2c(OCC)nn(Cc3ccc(-c4nc(C(F)(F)F)cn4CC)cc3)c2n1 [Example 183] ; field requested: solubility at 24 h
Result: < 10 µM

Request: Returns the measured solubility at 24 h for the input compound. Input: COc1ncnc(C2CC2)c1-c1ncc2cnn([C@H](C)c3ccc(-c4nc(C(F)(F)F)cn4C)cc3)c2n1 (single isomer, unassigned) [Example 93]
Result: > 10 µM

Request: Entry CCn1cc(C(F)(F)F)nc1-c1ccc(Cn2ncc3cnc(-c4c(OCCF)ncnc4C4CC4)nc32)cc1 [Example 54] : reported solubility at 24 h = ?
Result: < 10 µM

###

measurement-description: ADME solubility determination at pH 2.0 and pH 7.4
Assay type: physicochemical
measurement-context: aqueous buffer, thermodynamic from solid; PBS pH 2.0, shaken at 25° C. for 24 hours, LC-MS/MS; read-out: Solubility at pH 2.0
reported-property: solubility at 24 h

Request: Entry under review: "COc1ncnc(C2CC2)c1-c1ncc2cnn(Cc3ccc(-c4nc(C(F)(F)F)c[nH]4)cc3)c2n1" . Reported solubility at 24 h?
Result: < 10 µM

Request: Would you mind telling me what solubility at 24 h value was observed for "COc1ncnc(C2CC2)c1-c1ncc2cnn(Cc3ccc(-c4nc(C(F)(F)F)cn4C4COC4)cc3)c2n1" ?
Result: > 10 µM

Request: I'd like to know its solubility at 24 h. The molecule in question is "COc1ncnc(C2(C)CC2)c1-c1ncc2cnn(Cc3ccc(-c4nc(C(F)(F)F)cn4C)cc3)c2n1"
Result: > 10 µM

Request: I have this molecule here, "COc1ncnc(C2CC2)c1-c1ncc2cnn(Cc3ccc(-c4nc(C(F)(F)F)c(OC)n4C(C)C)cc3)c2n1" , and I need its recorded solubility at 24 h.
Result: < 10 µM

###

measurement-description: Liver microsomal stability, rat liver microsomes
Assay type: in vitro ADME
measurement-context: 1 μM compound, NADPH, read-out: t1/2 (min) in RLM
Kindly state half-life at 1 μM for each of the entries shown.

Request: Please give the measured half-life at 1 μM for this compound: "CCn1cc(C(F)(F)F)nc1-c1ccc(Cn2nc(OC3CCC3)c3cnc(-c4c(OC)ncnc4C4CC4)nc32)cc1"
Result: < 25 min

Request: Quick one: half-life at 1 μM for "CCn1cc(C(F)(F)F)nc1-c1ccc(Cn2nc(Br)c3cnc(-c4c(OC)ncnc4C4CC4)nc32)cc1" ?
Result: < 25 min

Request: Tell me the measured half-life at 1 μM of "CCn1cc(C#N)nc1-c1ccc(Cn2ncc3cnc(-c4c(OC)ncnc4C4CC4)nc32)cc1" , please.
Result: < 25 min

Request: Looking for the measured half-life at 1 μM of "COc1ncnc(C2CC2)c1-c1ncc2cnn(Cc3ccc(-n4nc(C(F)(F)F)cc4N(C)C)cc3)c2n1" , can you help?
Result: < 25 min

Request: Quick one: half-life at 1 μM of "CCc1nc2cnc(-c3c(OC)ncnc3C3CC3)nc2n1Cc1ccc(-n2nc(C(F)(F)F)cc2C)cc1" ?
Result: > 25 min

Request: Item "COc1ncnc(C2CC2)c1-c1ncc2cnn(Cc3ccc(-c4cn(C(C)C)c(C(F)(F)F)n4)cc3)c2n1" has what recorded half-life at 1 μM?
Result: > 25 min

Request: State the recorded half-life at 1 μM for this entry: "COCCOc1ncnc(C)c1-c1ncc2cnn(Cc3ccc(-n4nc(C(F)(F)F)cc4C)cc3)c2n1"
Result: < 25 min

###

measurement-description: Liver microsomal stability, rat liver microsomes
Assay type: in vitro ADME
measurement-context: 1 μM compound, NADPH, read-out: t1/2 (min) in RLM
reported-property: half-life at 1 μM

Request: I'd like to know its half-life at 1 μM. The compound in question is COc1ncnc(OC)c1-c1ncc2cnn(Cc3ccc(-c4nc(C(F)(F)F)cn4C(C)C)cc3)c2n1 [Example 90]
Result: > 25 min

Request: What value of half-life at 1 μM has been reported for the following compound? CCOc1ncnc(C2CC2)c1-c1ncc2c(OCC)nn(Cc3ccc(-c4nc(C(F)(F)F)cn4CC)cc3)c2n1 [Example 183]
Result: < 25 min

Request: Data request, read-out half-life at 1 μM, for COc1ncnc(C2CC2)c1-c1ncc2cnn(Cc3ccc(-c4nc(C(F)(F)F)c5n4CCNC5)cc3)c2n1 [Example 136]
Result: < 25 min

Request: Could you share which half-life at 1 μM value was measured for COc1ncnc(C2CC2)c1-c1ncc2cnn(Cc3ccc(-c4nc(C(F)(F)F)c(Br)n4C)cc3)c2n1 [Example 163] ?
Result: > 25 min

Request: Requested read-out: half-life at 1 μM. Entry: COc1ncnc(C(C)C)c1-c1ncc2cnn(Cc3ccc(-n4nc(C(F)(F)F)cc4C)cc3)c2n1 [Example 115]
Result: < 25 min

Request: For the compound shown here, CCn1cc(C(F)(F)F)nc1-c1ccc([C@H](C)n2nc(OC)c3cnc(-c4c(OC)ncnc4C4CC4)nc32)cc1 [Example 180] , give the reported half-life at 1 μM.
Result: > 25 min

Request: Would you kindly share the measured half-life at 1 μM for Cc1cc(C(F)(F)F)nn1-c1ccc(Cn2ncc3cnc(-c4cccnc4C(C)C)nc32)cc1 [Example 26] ?
Result: < 25 min

Request: Sample COc1ncnc(C2(C)CC2)c1-c1ncc2cnn(Cc3ccc(-c4nc(C(F)(F)F)cn4C(C)C)cc3)c2n1 [Example 107] — what was its half-life at 1 μM?
Result: > 25 min

Request: // query half-life at 1 μM value for entry COc1ncnc(C2CC2)c1-c1ncc2c(OC)nn(Cc3ccc(-c4cn(C(C)C)c(C(F)(F)F)n4)cc3)c2n1 [Example 185]
Result: > 25 min

Request: Any idea what its half-life at 1 μM is? The compound is CCn1cc(C(F)(F)F)nc1-c1ccc([C@H](C)n2ncc3cnc(-c4c(OC)ncnc4C4CC4)nc32)cc1 (single isomer, unassigned) [Example 94]
Result: < 25 min

Request: Look up half-life at 1 μM for this compound: COc1ncnc(C2CC2)c1-c1ncc2cnn(Cc3ccc(-n4nc(C(F)(F)F)cc4N(C)C)c(F)c3)c2n1 [Example 122]
Result: < 25 min

Request: May I ask what half-life at 1 μM has been recorded for COc1cnn(C2CC2)c1-c1ncc2cnn(Cc3ccc(-c4nc(C(F)(F)F)cn4C(C)C)cc3)c2n1 [Example 83] ?
Result: < 25 min

Request: Need half-life at 1 μM, item CCn1cc(C(F)(F)F)nc1-c1ccc(Cn2nc(OC)c3cnc(-c4c(OC)ncnc4C4CC4)nc32)cc1F [Example 175]
Result: > 25 min

Request: For CCn1cc(C(F)(F)F)nc1-c1ccc(Cn2nc(C)c3cnc(-c4c(OC)ncnc4C4CC4)nc32)cc1 [Example 187] , what is its reported half-life at 1 μM?
Result: < 25 min
